Test system: Fibroblast
Experiment: Multiplex assay against human fibroblast
Type: toxicity, cell-based
Conditions: 24 h, 10 µM, compound concentration 10 uM, replicate 2
property.name: Population Fragmented Nuclei (%)
Write the numeric value and follow it with the unit.

>  <compound>
CN1C(=O)[C@@H](NC(=O)c2cc3ccccc3[nH]2)N=C(c2ccccc2)c2ccccc21 [DEVAZEPIDE]

>  <Population Fragmented Nuclei (%)>
28%

$$$$
>  <compound>
CCCCCNC(=N)N/N=C/c1c[nH]c2ccc(OC)cc12.O=C(O)/C=C\C(=O)O [TEGASEROD MALEATE]

>  <Population Fragmented Nuclei (%)>
44%

$$$$
>  <compound>
N#Cc1cccc(C(=O)Nc2cc(-c3ccccc3)nn2-c2ccccc2)c1

>  <Population Fragmented Nuclei (%)>
9%

$$$$
>  <compound>
C[C@@H](Oc1cc(-n2cnc3ccc(CN4CCN(C)CC4)cc32)sc1C(N)=O)c1ccccc1C(F)(F)F

>  <Population Fragmented Nuclei (%)>
10%

$$$$
>  <compound>
CN(c1cc(C(F)(F)F)nc(OCCC(=O)O)n1)c1cccc2c1CCC2

>  <Population Fragmented Nuclei (%)>
13%

$$$$

I have 3 compounds here; please give me Population Fragmented Nuclei (%) for each one.
1. C=CC(=O)Nc1cc(-n2c(=O)ccc3cnc4ccc(-c5ccc(NS(C)(=O)=O)cc5)cc4c32)ccc1C
2. Cl.NC[C@@H]1O[C@H](C23CC4CC(CC(C4)C2)C3)Cc2c1ccc(O)c2O
3. CCOC(=O)CCNc1cc(N2CCc3ccccc3CC2)nc(-c2ccccn2)n1

Resp:
1: 21%; 2: 50%; 3: 53%

I have 2 compounds here; please give me Population Fragmented Nuclei (%) for each one.
1. Cc1c(P(=S)(c2ccccc2)c2ccccc2)n2ccccc2[n+]1C/C=C/c1ccccc1.[Br-]
2. NC(=O)c1ccc2nc(-c3ccc(C4(N)CCC4)cc3)c(-c3ccccc3)n2n1

Resp:
1: 23%; 2: 45%

I have 3 compounds here; please give me Population Fragmented Nuclei (%) for each one.
1. CC[C@H](Nc1ncnc2[nH]cnc12)c1nc2cccc(F)c2c(=O)n1-c1ccccc1
2. CC[C@@]1(O)C(=O)OCc2c1cc1n(c2=O)Cc2cc3ccccc3nc2-1
3. CC(Cc1ccc(O)c(O)c1)C(C)Cc1ccc(O)c(O)c1 (stereo not drawn) [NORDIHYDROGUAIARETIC ACID]

Resp:
1. 70%
2. 65%
3. 2%
